// data source = paper PMC11033320

Record form. Attribute: inhibition at 10 µM. Fill in for each entry.
System: UACC-62
Experiment: NCI anticancer screening, Melanoma UACC-62
Assay type: cell-based
Details: Homo sapiens; UACC-62, 10 μM; read-out: % Growth Inhibition (GI %)

Query O=C(c1nc2ccccc2[nH]1)[C@H]1[C@H](c2ccc(Cl)cc2Cl)C2CSCN2[C@]12C(=O)Nc1ccccc12 (stereo partly shown) yields inhibition at 10 µM of 57%

Query O=C(c1nc2ccccc2[nH]1)[C@H]1[C@H](c2ccccc2)C2CSCN2[C@]12C(=O)Nc1ccccc12 (mixture of isomers) yields inhibition at 10 µM of 95.7%

Query CN(C)c1ccc([C@@H]2C3CSCN3[C@]3(C(=O)Nc4ccccc43)[C@H]2C(=O)c2nc3ccccc3[nH]2)cc1 (stereo partly shown) yields inhibition at 10 µM of 84.4%

Query O=C(c1nc2ccccc2[nH]1)[C@H]1[C@H](c2cccc(F)c2)C2CSCN2[C@]12C(=O)Nc1ccccc12 (stereo partly shown) yields inhibition at 10 µM of 80.1%

* * *

System: UACC-62
Assay: NCI anticancer screening, Melanoma UACC-62
Format: cell-based
Details: Homo sapiens; UACC-62, 10 μM; read-out: % Growth Inhibition (GI %)
measuredMetric: inhibition at 10 µM
Please report the result as a number followed by the unit.

For the compound O=C(c1nc2ccccc2[nH]1)[C@H]1[C@H](c2ccco2)C2CSCN2[C@]12C(=O)Nc1ccccc12 (stereo partly shown) [Compound 6n] , the measured inhibition at 10 µM on UACC-62 was 90.6%

For the compound O=C(c1nc2ccccc2[nH]1)[C@H]1[C@H](c2ccc(Br)cc2)C2CSCN2[C@]12C(=O)Nc1ccccc12 (stereo partly shown) [Compound 6l] , the measured inhibition at 10 µM on UACC-62 was 70.5%

For the compound O=C(c1nc2ccccc2[nH]1)[C@H]1[C@H](c2ccc(C(F)(F)F)cc2)C2CSCN2[C@]12C(=O)Nc1ccccc12 (stereo partly shown) [Compound 6c] , the measured inhibition at 10 µM on UACC-62 was 77.5%

For the compound O=C(c1nc2ccccc2[nH]1)[C@H]1[C@H](c2cccs2)C2CSCN2[C@]12C(=O)Nc1ccccc12 (stereo partly shown) [Compound 6e] , the measured inhibition at 10 µM on UACC-62 was 90.8%

* * *

Test system: HCT-15
Experiment: NCI anticancer screening, Colon Cancer HCT-15
Type: cell-based
Settings: Homo sapiens; HCT-15, 10 μM; read-out: % Growth Inhibition (GI %)
Record form. Attribute: inhibition at 10 µM. Fill in for each entry.

Query O=C(c1nc2ccccc2[nH]1)[C@H]1[C@H](c2ccc(F)cc2)C2CSCN2[C@]12C(=O)Nc1ccccc12 (some centres unmarked) yields inhibition at 10 µM of 93.6%

Query O=C(c1nc2ccccc2[nH]1)[C@H]1[C@H](c2ccc(C(F)(F)F)cc2)C2CSCN2[C@]12C(=O)Nc1ccccc12 (some centres unmarked) yields inhibition at 10 µM of 88.9%

Query O=C(c1nc2ccccc2[nH]1)[C@H]1[C@H](c2cccc(F)c2)C2CSCN2[C@]12C(=O)Nc1ccccc12 (some centres unmarked) yields inhibition at 10 µM of 95%

Query O=C(c1nc2ccccc2[nH]1)[C@H]1[C@H](c2ccc(Cl)cc2Cl)C2CSCN2[C@]12C(=O)Nc1ccccc12 (some centres unmarked) yields inhibition at 10 µM of 56%

Query O=C(c1nc2ccccc2[nH]1)[C@H]1[C@H](c2ccco2)C2CSCN2[C@]12C(=O)Nc1ccccc12 (some centres unmarked) yields inhibition at 10 µM of 105%

Query O=C(c1nc2ccccc2[nH]1)[C@H]1[C@H](c2ccc(Cl)cc2)C2CSCN2[C@]12C(=O)Nc1ccccc12 (some centres unmarked) yields inhibition at 10 µM of 76.6%

Query CN(C)c1ccc([C@@H]2C3CSCN3[C@]3(C(=O)Nc4ccccc43)[C@H]2C(=O)c2nc3ccccc3[nH]2)cc1 (some centres unmarked) yields inhibition at 10 µM of 99.1%

Query O=C(c1nc2ccccc2[nH]1)[C@H]1[C@H](c2cccs2)C2CSCN2[C@]12C(=O)Nc1ccccc12 (some centres unmarked) yields inhibition at 10 µM of 100%

Query Cc1ccc([C@@H]2C3CSCN3[C@]3(C(=O)Nc4ccccc43)[C@H]2C(=O)c2nc3ccccc3[nH]2)cc1 (mixture of isomers) yields inhibition at 10 µM of 83.6%

Query COc1cc([C@@H]2C3CSCN3[C@]3(C(=O)Nc4ccccc43)[C@H]2C(=O)c2nc3ccccc3[nH]2)cc(OC)c1OC (some centres unmarked) yields inhibition at 10 µM of 105%

Query O=C(c1nc2ccccc2[nH]1)[C@H]1[C@H](c2ccccc2)C2CSCN2[C@]12C(=O)Nc1ccccc12 (mixture of isomers) yields inhibition at 10 µM of 109%

Query O=C(c1nc2ccccc2[nH]1)[C@H]1[C@H](c2cccc(O)c2)C2CSCN2[C@]12C(=O)Nc1ccccc12 (some centres unmarked) yields inhibition at 10 µM of 103%

Query O=C(c1nc2ccccc2[nH]1)[C@H]1[C@H](c2ccc(Br)cc2)C2CSCN2[C@]12C(=O)Nc1ccccc12 (some centres unmarked) yields inhibition at 10 µM of 67%

Query O=C(c1nc2ccccc2[nH]1)[C@H]1[C@H](c2ccccc2O)C2CSCN2[C@]12C(=O)Nc1ccccc12 (some centres unmarked) yields inhibition at 10 µM of 101%
